target: recombinant rabbit GSK-3β protein (Oryctolagus cuniculus); construct: purchased New England Biolabs; test: Glycogen Synthase Kinase-3 assay (PPI-2 phosphorylation); assay type: biochemical; details: PPI-2 substrate, 33P-ATP
Sequence (G1T8E2 1-432): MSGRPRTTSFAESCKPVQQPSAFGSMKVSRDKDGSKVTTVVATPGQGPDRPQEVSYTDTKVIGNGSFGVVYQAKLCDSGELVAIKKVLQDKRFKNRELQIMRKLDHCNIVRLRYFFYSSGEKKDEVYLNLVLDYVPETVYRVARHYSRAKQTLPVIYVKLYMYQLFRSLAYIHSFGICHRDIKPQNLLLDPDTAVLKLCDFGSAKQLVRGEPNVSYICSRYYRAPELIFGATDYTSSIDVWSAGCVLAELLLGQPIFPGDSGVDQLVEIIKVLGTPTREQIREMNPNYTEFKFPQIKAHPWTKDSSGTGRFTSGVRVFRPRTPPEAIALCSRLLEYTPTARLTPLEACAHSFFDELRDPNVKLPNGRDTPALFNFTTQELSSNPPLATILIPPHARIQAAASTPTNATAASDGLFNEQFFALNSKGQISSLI
quantityName: IC50 (µM)
# unit: µM | format: bare number

What does the data say about its IC50? Entry: Cn1cc(C2=C(c3nn(CCCn4cnnn4)c4ccccc34)C(=O)NC2=O)c2cc(Cl)ccc21
0.004

Next up: Cn1cc(C2=C(c3nn(CCCn4ccnn4)c4ccccc34)C(=O)NC2=O)c2cc(Cl)ccc21
0.003

Can you handle Cn1cc(C2=C(c3nn(CCc4nnn[nH]4)c4ccccc34)C(=O)NC2=O)c2cc(Cl)ccc21 next?
0.005

Item: Cn1cc(C2=C(c3nn(CCCn4ncnn4)c4ccccc34)C(=O)NC2=O)c2cc(Cl)ccc21
0.004

// repeat for Cc1nnn(CCCn2nc(C3=C(c4cn(C)c5ccc(Cl)cc45)C(=O)NC3=O)c3ccccc32)n1 and report
0.005

Next record, please: O=C1NC(=O)C(c2nn(CCCn3cnnn3)c3ccccc23)=C1c1cn(-c2cccnc2)c2ccccc12
0.034

Request: Cn1cc(C2=C(c3nn(CCCn4ccnc4)c4ccccc34)C(=O)NC2=O)c2cc(Cl)ccc21
0.004
